test system: SNB-78; assay: NCI tumour cell line growth inhibition, 48 h
Active and inactive are the calls of the source. No stated cut-off is given here; in the data, active = GI50 up to about 1.1 µM and inactive = higher.
measured_endpoint: GI50

C=C(Br)C(C)(Cl)CCC(Br)C(C)(C)Br (configuration not stated): > 100 µM (inactive)

In: GET /values?readout=GI50&item= O=C(CCN1CCCCC1CCO)Nc1ccc2c(c1)C(=O)c1ccc(NC(=O)CCN3CCCCC3CCO)cc1C2=O (configuration not stated)
Out: 3.2 µM (inactive)

In: # iterate: `CN(C)c1ccc(/C=C(\C#N)C(=O)c2ccccc2)cc1Br`
Out: > 100 µM (inactive)

In: # iterate: `COC(=O)c1c/c(=N\NC(=O)CC(=O)Nc2ccccc2Cl)c2ccccc2o1`
Out: > 100 µM (inactive)

In: # iterate: CC(c1ccccc1)/[N+]([O-])=C/c1ccccc1 (configuration not stated)
Out: > 100 µM (inactive)

In: # iterate: `NS(=O)(=O)c1ccc(NC(=O)c2cccn3c(=O)c4ccccc4nc23)cc1`
Out: > 100 µM (inactive)

In: # iterate: `O=Cc1c(Cn2ccnc2)c2cc([N+](=O)[O-])ccc2n1Cc1ccccc1`
Out: > 72.4 µM (inactive)

In: # iterate: `CC(C)(C)c1ccccc1NS(=O)(=O)c1ccccc1`
Out: > 100 µM (inactive)

In: # iterate: `COc1ccc(O)cc1C=O`
Out: > 100 µM (inactive)

In: # iterate: CC1(C)OC2CC3COC(=O)C3CC2O1 (configuration not stated)
Out: > 100 µM (inactive)

In: # iterate: `O=C(OCc1ccccc1C1CSCSC1)c1cc(C(=O)OCc2ccccc2C2CSCSC2)c(C(=O)OCc2ccccc2C2CSCSC2)cc1C(=O)OCc1ccccc1C1CSCSC1`
Out: 78.9 µM (inactive)

In: # iterate: `O=C(N/C(=C\c1ccc(/C=C(\NC(=O)c2ccccc2)c2nc3c(O)nc(S)nc3[nH]2)cc1)c1nc2c(O)nc(S)nc2[nH]1)c1ccccc1`
Out: > 100 µM (inactive)

---

system: OVCAR-5; assay: NCI tumour cell line growth inhibition, 48 h
Calls of active or inactive are those of the source. No stated cut-off is given here; in the data, active = GI50 up to about 1.1 µM and inactive = higher.
measured_endpoint: GI50

In: So what GI50 did Cc1ccc(S(=O)(=O)OCC23CCC(C2)C2CC23)cc1 (stereo not drawn) get with OVCAR-5?
Out: > 100 µM (inactive)

In: # iterate: `CN(C)c1ccc(/C=C/c2ccnc3ccccc23)cc1N`
Out: 13.7 µM (inactive)

---

tested on: A549; assay: NCI tumour cell line growth inhibition, 48 h
Calls of active or inactive are those of the source. Cut-off read from the data, not from the text of the source: active = GI50 up to about 1.1 µM and inactive = higher.
Select the correct class. Options are class 1 = active, class 0 = inactive and nothing else.

Here are 5 compounds together with their reported answers.
COc1ccc(NC2C(=O)C3(C)CCC2C3(C)C)cc1 (stereo not given): class 0
Cc1cc(C)nc(NS(=O)(=O)c2ccc(Nc3c4ccccc4nc4c(C(=O)NCCCN(CCO)CCO)cccc34)cc2)n1: class 0
CC(C)(N)C(=O)N[C@@H]1C(=O)N2[C@@H]1SC(C)(C)[C@@H]2C(=O)O: class 0
Cc1c(Cl)nc(Nc2nc3ccccc3[nH]2)nc1Cl: class 0
CCOP(=O)(CC(=O)C1CC1)OCC: class 0

In: Fill in: this test's call for `COc1ccc(NCn2nc(CCCCCCCCc3nn(CNc4ccc(OC)cc4)c(=S)o3)oc2=S)cc1` is ___
Out: class 0

In: # iterate: `O=[N+]([O-])/C(Cl)=C(\Nc1ccccc1)C(Cl)=C(Cl)Cl`
Out: class 0

In: # iterate: CC1=NNC(=O)C1C(CC(=O)c1c[nH]c2ccccc12)C(=O)O (stereo not given)
Out: class 0

In: # iterate: Nc1ccn(C2OC(CO)C(O)C2(F)F)c(=O)n1 (stereo not given)
Out: class 1

In: # iterate: CC[C@@]1(O)C[C@H](OC2CC(N(C)C)C(O)C(C)O2)c2c(cc3c(c2O)C(=O)c2c(O)ccc(O)c2C3=O)[C@H]1C(=O)OC (stereo not given in full)
Out: class 1

In: # iterate: `COc1ccc(C(=O)/C=C/c2ccc(O)c(O)c2F)c(OC)c1`
Out: class 0

In: # iterate: `NC(=O)NC(=O)c1cccc(NC(=O)CBr)c1`
Out: class 1

In: # iterate: `N#CSc1ccc(S(N)(=O)=O)cc1`
Out: class 0

In: # iterate: O/N=C1/CCCCC1NO (stereo not given)
Out: class 0

In: # iterate: `Cc1cc(S(N)(=O)=O)c(SCc2nc(N)nc(N(C)C)n2)cc1Cl`
Out: class 0

In: # iterate: `CCOC(=O)c1nnsc1NC(=O)NN`
Out: class 0

In: # iterate: CC1OC(OC2C(O[C@H]3CC[C@@]4(C)C(=CC[C@H]5[C@@H]6C[C@@H]7O[C@]8(CC[C@@H](C)CO8)[C@@H](C)[C@@H]7[C@@]6(C)CC[C@@H]54)C3)OC(CO)C(OC3OC(CO)C(O)C3O)C2O)C(O)C(O)C1O (stereo not given in full)
Out: class 1

In: # iterate: `C[C@]12CC[C@H]3[C@@H](CC=C4C[C@@H](N5CCCC5)CC[C@@]43C)[C@@H]1C[C@H](N1CCOCC1)[C@@H]2O`
Out: class 0

In: # iterate: CC1(C)C2CCC13C(=O)C1OC3(C2)C2C(=O)N(c3ccccc3)C(=O)C12 (stereo not given)
Out: class 0

In: # iterate: `CC(=O)Nc1ccc2nc(-c3cccc(Cl)c3)cc(O)c2c1`
Out: class 0

---

test system: DU-145; experiment: NCI tumour cell line growth inhibition, 48 h
Active and inactive are the calls of the source. Rule as the data show it: active = GI50 up to about 1.1 µM and inactive = higher.
measured_endpoint: GI50

In: GET /values?readout=GI50&item= `CC(C)=NN/C(=N\c1ccc(Cl)cc1)NS(=O)(=O)c1cc(Cl)c(Oc2ccc([N+](=O)[O-])cc2Cl)c(Cl)c1`
Out: > 100 µM (inactive)

In: # iterate: `CCOC(=O)c1nc2ccc(C(F)(F)F)cc2nc1Oc1ccc(OC)cc1`
Out: > 100 µM (inactive)

---

tested on: SK-MEL-28; assay: NCI tumour cell line growth inhibition, 48 h
Active and inactive are the calls of the source. No stated cut-off is given here; in the data, active = GI50 up to about 1.1 µM and inactive = higher. Square brackets hold non-standard residues; d marks the D form. Peptide text beside a SMILES is read from it. ξ: configuration not given here. ξ2Thi = NC(Cc1cccs1)C(=O)O; ξR = N=C(N)NCCCC(N)C(=O)O; ξI = CCC(C)C(N)C(=O)O; ξL = CC(C)CC(N)C(=O)O; ξK = NCCCCC(N)C(=O)O; ξT = CC(O)C(N)C(=O)O; ξA = CC(N)C(=O)O
// reported GI50 per item

Below are worked cases with known answers.
O=C1CCCCC/C1=C\c1ccc(F)cc1: > 100 µM (inactive)
Cn1c(=O)sc2cc(C(=S)N3CCN(c4ccccc4)CC3)ccc21: 97.1 µM (inactive)
O=C1N(c2ccccc2)N=C2c3ccncc3C3=NN(c4ccccc4)C(=O)C123 (configuration not stated): > 22 µM (inactive)
Cc1cn(C2CCN(CC3COC(C)(C)O3)O2)c(=O)[nH]c1=O (configuration not stated): > 100 µM (inactive)
C=C(C)C(CC=C(C)C)Cc1c(O)cc(OC)c2c1OC(c1ccc(O)cc1O)C(O)C2=O (configuration not stated): 21.1 µM (inactive)

In: GET /values?readout=GI50&item= CCC(C)C(NC(=O)C(Cc1cccs1)NC(=O)C(CC(C)C)NC(=O)C(CC(C)C)NC(=O)C(CCCCN)NC(=O)C(CCCN=C(N)N)NC(=O)[C@H](Cc1ccc(O)cc1)NC(=O)C(NC(=O)C(C)NC(=O)C(N)CC(C)C)C(C)O)C(=O)NC(CC(C)C)C(N)=O (some centres not stated) (H-[ξL][ξA][ξT]Y[ξR][ξK][ξL][ξL][ξ2Thi][ξI][ξL]-NH2)
Out: > 50 µM (inactive)

In: # iterate: `O/N=C1/CCC/C1=C\c1ccccc1`
Out: > 100 µM (inactive)

---

tested on: OVCAR-3; test: NCI tumour cell line growth inhibition, 48 h
Activity calls are given as the source filed them. Rule as the data show it: active = GI50 up to about 1.1 µM and inactive = higher.
Select the correct class. Options are active, inactive and nothing else.

Here are 3 molecules together with their reported answers.
COc1cc(C2S/C(=C/c3ccccc3)C(=O)N2c2ccc([N+](=O)[O-])cc2)cc(OC)c1OC (centres undefined): inactive
CC1=NN(c2nc(N)nc(/C(C#N)=C\c3ccc([N+](=O)[O-])s3)n2)C(C)(C)C1: active
C[C@H](C1CC(C)(O)C(C)(O)C(O)O1)[C@H]1CC[C@H]2[C@@H]3[C@@H]4O[C@@H]4[C@@]4(O)CC=CC(=O)[C@]4(C)[C@H]3CC[C@]12C (some centres undefined): inactive

Next:
In: Fill in: this test's call for `CCOC(=O)c1nc2ccc(C(F)(F)F)cc2nc1Oc1ccc(OC)cc1` is ___
Out: inactive
